Experimental System: ENPP-1 ECD (Homo sapiens (Human))
Method: Assay 1: inhibition of ENPP1 hydrolysis of 2′,3′-cGAMP (AMP-Glo, […] enzyme)
Value Kind: pKi
Would you please state pKi, meaning minus log10 of the concentration in mol/L, as a bare number?

// recorded pKi for COc1cc2nccc(Oc3ccc(S(C)(=N)=O)cc3)c2cc1OC (stereo not shown) : 8.29

---

Experimental System: ENPP-1 ECD (Homo sapiens (Human), UniProt P22413)
Sequence (P22413 98-925): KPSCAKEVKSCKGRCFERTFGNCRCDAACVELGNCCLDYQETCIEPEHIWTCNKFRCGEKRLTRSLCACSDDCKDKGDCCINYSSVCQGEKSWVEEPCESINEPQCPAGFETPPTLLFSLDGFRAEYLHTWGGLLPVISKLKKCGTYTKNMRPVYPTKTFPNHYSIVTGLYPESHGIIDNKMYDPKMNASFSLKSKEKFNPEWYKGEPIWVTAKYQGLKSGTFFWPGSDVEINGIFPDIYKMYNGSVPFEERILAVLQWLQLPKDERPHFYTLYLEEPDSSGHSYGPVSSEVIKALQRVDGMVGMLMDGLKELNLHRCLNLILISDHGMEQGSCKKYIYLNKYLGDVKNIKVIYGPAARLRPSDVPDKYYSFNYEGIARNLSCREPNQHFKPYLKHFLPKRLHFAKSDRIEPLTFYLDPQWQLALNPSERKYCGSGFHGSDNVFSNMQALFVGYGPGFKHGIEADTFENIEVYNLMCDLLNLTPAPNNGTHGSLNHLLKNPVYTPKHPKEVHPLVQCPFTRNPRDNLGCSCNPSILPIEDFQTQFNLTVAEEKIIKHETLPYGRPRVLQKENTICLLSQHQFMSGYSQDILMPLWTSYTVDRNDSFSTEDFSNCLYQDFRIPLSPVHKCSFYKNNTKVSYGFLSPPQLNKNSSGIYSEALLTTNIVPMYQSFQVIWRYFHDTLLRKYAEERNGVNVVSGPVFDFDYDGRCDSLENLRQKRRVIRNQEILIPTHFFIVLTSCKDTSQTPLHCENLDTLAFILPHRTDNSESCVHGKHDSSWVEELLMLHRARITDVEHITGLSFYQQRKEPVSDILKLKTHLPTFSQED
Method: Assay 1: inhibition of ENPP1 hydrolysis of 2′,3′-cGAMP (AMP-Glo, […] enzyme)
Assay Context: Assay 1 (IC50), inhibition of ENPP1 hydrolysis of 2′,3′-cGAMP; no unit in Table 18 (Table 17 legend for this assay uses nM)
Value Kind: log10 IC50 (log10 of the value in nM)
Record value = log10 of IC50 given in nM.

// recorded log10 IC50 for COc1cc2nccc(Oc3ccc(S(C)(=N)=O)cc3)c2cc1Cl (stereo not shown) : 1.59

// recorded log10 IC50 for COc1cc2nccc(OCc3ccc(S(C)(=N)=O)cc3)c2cc1OC (stereo not shown) : 1.57

// recorded log10 IC50 for COc1ccc2c(N3CCC4(CC3)CCN(S(C)(=N)=O)C4)ccnc2c1 (stereo not shown) : 0.30

// recorded log10 IC50 for COc1ccc2c(Oc3ccc(S(C)(=N)=O)nc3)ccnc2c1 (stereo not shown) : 1.60

// recorded log10 IC50 for Cc1ccc2ncc(C#N)c(Oc3ccc(S(C)(=N)=O)cc3)c2c1 (stereo not shown) : 3.41

// recorded log10 IC50 for COc1cccc2c(-c3ccc(CCS(C)(=N)=O)cc3)ncnc12 (stereo not shown) : 3.26

// recorded log10 IC50 for CS(=N)(=O)c1ccc(Oc2ccnc3ccccc23)cc1 (stereo not shown) : 2.53

// recorded log10 IC50 for COc1cc2nccc(Oc3ccc(S(=N)(=O)C4CC4)cc3)c2cc1F (stereo not shown) : 0.04

// recorded log10 IC50 for COc1ccc2ncc(C#N)c(Oc3ccc(S(C)(=N)=O)cc3)c2c1 (stereo not shown) : 2.26

// recorded log10 IC50 for `COc1cc2nccc(Oc3ccc([S@@](C)(=N)=O)cc3)c2cc1OC` : 1.11

// recorded log10 IC50 for COc1ccc2c(OCc3ccc(S(C)(=N)=O)cc3)ccnc2c1 (stereo not shown) : 0.64

// recorded log10 IC50 for COc1cc2nccc(Oc3ccc(S(C)(=N)=O)cc3)c2cc1F (stereo not shown) : 0.45

// recorded log10 IC50 for COc1cc2ncc(C#N)c(N3CCC(CCS(C)(=N)=O)CC3)c2cc1F (stereo not shown) : 0.59

// recorded log10 IC50 for COc1cc2ncc(C#N)c(N3CCC(CCS(C)(=N)=O)CC3)c2cc1Cl (stereo not shown) : 0.38

// recorded log10 IC50 for COc1cc2ncc(C#N)c(Oc3ccc(S(C)(=N)=O)cc3)c2cc1F (stereo not shown) : 1.18

// recorded log10 IC50 for COc1ccc2c(N3CCC(CCS(C)(=N)=O)CC3)ncnc2c1 (stereo not shown) : 1.18

// recorded log10 IC50 for COc1ccc2c(Oc3ccc(S(C)(=N)=O)c(F)c3)ccnc2c1 (stereo not shown) : 1.36

// recorded log10 IC50 for COc1cc2nccc(Oc3ccc(S(C)(=N)=O)cc3)c2cn1 (stereo not shown) : 1.76

// recorded log10 IC50 for COc1ccc2c(N3CCC(CCS(C)(=N)=O)CC3)ccnc2c1 (stereo not shown) : 1.74

// recorded log10 IC50 for COc1cc2ncnc(Oc3ccc(S(C)(=N)=O)cc3)c2cc1OC (stereo not shown) : 2.26

// recorded log10 IC50 for COc1ccc2c(Oc3ccc(S(=N)(=O)C4CC4)cc3)ccnc2c1 (stereo not shown) : 0.45

// recorded log10 IC50 for COc1ccc2c(OCc3ccc(S(C)(=N)=O)cc3Br)ccnc2c1 (stereo not shown) : 2.30

// recorded log10 IC50 for COc1cc2nccc(N3CCC(CCS(C)(=N)=O)CC3)c2cc1F (stereo not shown) : 0.93

// recorded log10 IC50 for COc1cc2nccc(-c3ccc4c(c3)CN(S(C)(=N)=O)CC4)c2cc1OC (stereo not shown) : 0.11

// recorded log10 IC50 for COc1ccc2c(-c3ccc(CCS(C)(=N)=O)cc3)ccnc2c1 (stereo not shown) : 2.15

// recorded log10 IC50 for COc1ccc2c(Oc3cccc(S(C)(=N)=O)c3)ccnc2c1 (stereo not shown) : 2.26

// recorded log10 IC50 for COc1ccc2c(Oc3ccc(S(C)(=N)=O)cc3F)ccnc2c1 (stereo not shown) : 1.48

// recorded log10 IC50 for COc1cccc2c(N3CCC(CCS(C)(=N)=O)CC3)ccnc12 (stereo not shown) : 2.94

// recorded log10 IC50 for CS(=N)(=O)CCC1CCN(c2ccnc3ccccc23)CC1 (stereo not shown) : 3.15

// recorded log10 IC50 for COc1ccc2nccc(Oc3ccc(S(C)(=N)=O)cc3)c2n1 (stereo not shown) : 3.91

// recorded log10 IC50 for COc1cc2ncnc(OCc3ccc(S(C)(=N)=O)cc3)c2cc1OC (stereo not shown) : 2.04

// recorded log10 IC50 for COc1cc2nccc(Oc3ccc(S(C)(=N)=O)nc3)c2cc1OC (stereo not shown) : 2.41

// recorded log10 IC50 for COc1ccc2c(Oc3ccc(S(C)(=N)=O)cc3)cnnc2c1 (stereo not shown) : 1.82

// recorded log10 IC50 for COc1cc2nccc(Oc3ccc(S(C)(=N)=O)c(F)c3)c2cc1OC (stereo not shown) : 1.93

// recorded log10 IC50 for COc1cc2nccc(Oc3ccc(S(C)(=N)=O)cc3F)c2cc1OC (stereo not shown) : 2.34
